Test Target: affinity purified β2GPI-dependent antiphospholipid antibody
Assay Overview: Competitive inhibition ELISA: recombinant β2GPI proteins compete for antibody binding to coated full length recombinant β2GPI
Set-up: species or system human
Condition Description: Ab 6641; read-out: 50% (concentration to give 50% inhibition)
pIC50: −log10 of the molar value.

| Molecule | pIC50 |
| --- | --- |
| 1234-: recombinant β2GPI deletion mutant with domains 1, 2, 3, 4 (protein) GRTCPKPDDLPFSTVVPLKTFYEPGEEITYSCKPGYVSRGGMRKFICPLTGLWPINTLKCTPRVCPFAGILENGAVRYTTFEYPNTISFSCNTGFYLNGADSAKCTEEGKWSPELPVCAPIICPPPSIPTFATLRVYKPSAGNNSLYRDTAVFECLPQHAMFGNDTITCTTHGNWTKLPECREVKCPFPSRPDNGFVNYPAKPTLYYKDKATFGCHDGYSLDGPEEIECTKLGNWSAMPSCGHHHHHH | 5.70 |
